The measured values listed here are drawn from patent US11459323B2.

MEASUREMENT NOTES: Pharmacokinetic experiment of the compounds in mice
Type: in vivo
PROTOCOL CONDITIONS: mouse, plasma, 2 mg/kg; Male CD-1 mice, fasting, intravenous injection, 2 mpk; read-out: Clearance rate Cl
Description: In this experiment, six CD-1 mice (males) were divided into 2 groups (2 groups) according to their similar body weight. Group 1 and Group 2 were given respectively a single intravenous and intraperitoneal injection of the compounds of embodiment 13, embodiment 17, embodiment 32 and embodiment 34, each compound was at 2 mg/kg. […] About 0.02 mL of blood samples from the saphenous vein were collected from all experimental animals, and the actual blood collection time was recorded. […]
PROPERTY LABEL: clearance (mL/min/kg)

Some molecules with known clearance results, for comparison:
{"columns": ["MOLECULE", "PROPERTY LABEL", "READOUT VALUE"],
 "data": [
  ["CC1(C)[C@H](NC(=O)/C(=N\\OCCOc2ccc3c(c2)CN(C(=N)N(CCCN)CCCN)C3)c2csc(N)n2)C(=O)N1OS(=O)(=O)O [Compound 17]", "clearance", 4.6],
  ["CC1(C)[C@H](NC(=O)/C(=N\\O[C@@H](COc2ccc3c(c2)CN(C(=N)NCCCN)C3)C(=O)O)c2csc(N)n2)C(=O)N1OS(=O)(=O)O [Compound 34]", "clearance", 10.4]
]}

1: CC1(C)[C@H](NC(=O)/C(=N\OCCOc2ccc3c(c2)CN(C(=N)NCCCN)C3)c2csc(N)n2)C(=O)N1OS(=O)(=O)O [Compound 13]
2: CC1(C)[C@H](NC(=O)/C(=N\O[C@@H](COc2ccc3c(c2)CN(C(=N)N(CCCN)CCCN)C3)C(=O)O)c2csc(N)n2)C(=O)N1OS(=O)(=O)O [Compound 32]
Input: Out of 1 and 2 , name the one with the higher clearance. API: response body contains the label of the selected item.
Output: 1

----------
Test system: Pseudomonas aeruginosa C755
MEASUREMENT NOTES: MIC on clinically isolated bacteria
Assay type: cell-based
PROTOCOL CONDITIONS: read-out: MIC
Source text: Twenty-five strains of clinically isolated Acinetobacter baumannii and twenty-seven strains of Pseudomonas aeruginosa were respectively selected and used to determine the minimum inhibitory concentration (MIC) of the compounds by micro-liquid dilution method according to the Institute of Clinical and Laboratory Standard (CLSI) requirements.
PROPERTY LABEL: MIC (µg/mL)

Some compounds with known MIC results, for comparison:
{"columns": ["CHEMICAL STRING", "STUDY TARGET", "MIC / µg/mL"],
 "data": [
  ["CC1(C)[C@H](NC(=O)/C(=N\\O[C@@H](COc2ccc3c(c2)CN(/C(=N\\[C@@H]2CCCNC2)N[C@@H]2CCCNC2)C3)C(=O)O)c2csc(N)n2)C(=O)N1OS(=O)(=O)O", "Pseudomonas aeruginosa C755", 0.5],
  ["CC1(C)[C@H](NC(=O)/C(=N\\O[C@@H](COc2ccc3c(c2)CN(C(=N)N[C@@H]2CCCNC2)C3)C(=O)O)c2csc(N)n2)C(=O)N1OS(=O)(=O)O", "Pseudomonas aeruginosa C755", 0.5]
]}

A: CC1(C)[C@H](NC(=O)/C(=N\O[C@@H](COc2ccc3c(c2)CN(C(=N)NCCN)C3)C(=O)O)c2csc(N)n2)C(=O)N1OS(=O)(=O)O
B: CC1(C)[C@H](NC(=O)/C(=N\O[C@@H](COc2ccc3c(c2)CN(C(=N)NCCCCN)C3)C(=O)O)c2csc(N)n2)C(=O)N1OS(=O)(=O)O
C: CC1(C)[C@H](NC(=O)/C(=N\O[C@@H](COc2ccc3c(c2)CN(C(=N)NOCCN)C3)C(=O)O)c2csc(N)n2)C(=O)N1OS(=O)(=O)O
Input: Please list these in order of increasing MIC. Thank you! Form field (ranking): labels in requested order.
Output: B, A, C

----------
Test system: Pseudomonas aeruginosa W35
MEASUREMENT NOTES: MIC on clinically isolated bacteria
Type: cell-based
PROTOCOL CONDITIONS: read-out: MIC
PROPERTY LABEL: MIC (µg/mL)

Some compounds with known MIC results, for comparison:
{"columns": ["COMPOUND", "MIC [µg/mL]"],
 "data": [
  ["CC1(C)[C@H](NC(=O)/C(=N\\O[C@@H](COc2ccc3c(c2)CN(C(=N)N[C@@H]2CCCNC2)C3)C(=O)O)c2csc(N)n2)C(=O)N1OS(=O)(=O)O", 0.5],
  ["CC1(C)[C@H](NC(=O)/C(=N\\O[C@@H](COc2ccc3c(c2)CN(/C(=N\\[C@@H]2CCCNC2)N[C@@H]2CCCNC2)C3)C(=O)O)c2csc(N)n2)C(=O)N1OS(=O)(=O)O", 0.25],
  ["C[C@@H](O)[C@H]1C(=O)N2C(C(=O)O)=C(S[C@@H]3CN[C@H](C(=O)N(C)C)C3)[C@H](C)[C@H]12 [Meropenem, reference compound]", 16],
  ["C[C@H]1[C@H](NC(=O)/C(=N\\OC(C)(C)C(=O)O)c2csc(N)n2)C(=O)N1S(=O)(=O)O [Aztreonam, reference compound]", 2]
]}

A: CC1(C)[C@H](NC(=O)/C(=N\O[C@@H](COc2ccc3c(c2)CN(C(=N)NCCN)C3)C(=O)O)c2csc(N)n2)C(=O)N1OS(=O)(=O)O
B: CC1(C)[C@H](NC(=O)/C(=N\O[C@@H](COc2ccc3c(c2)CN(C(=N)NCCCCN)C3)C(=O)O)c2csc(N)n2)C(=O)N1OS(=O)(=O)O
C: CC1(C)[C@H](NC(=O)/C(=N\O[C@@H](COc2ccc3c(c2)CN(C(=N)N(CCN)CCN)C3)C(=O)O)c2csc(N)n2)C(=O)N1OS(=O)(=O)O
D: CC1(C)[C@H](NC(=O)/C(=N\O[C@@H](COc2ccc3c(c2)CN(C(=N)NOCCN)C3)C(=O)O)c2csc(N)n2)C(=O)N1OS(=O)(=O)O
Input: Please list these in order of increasing MIC. Thank you! Form field (ranking): labels in requested order.
Output: B, A, D, C

----------
System: Acinetobacter baumannii C319
MEASUREMENT NOTES: MIC on clinically isolated bacteria
Assay type: cell-based
PROTOCOL CONDITIONS: Acinetobacter baumannii C319; read-out: Minimum Inhibitory Concentration (MIC)
PROPERTY LABEL: MIC (µg/mL)

{"columns": ["CHEMICAL STRING", "PROPERTY LABEL", "READOUT VALUE"],
 "data": [
  ["CC1(C)[C@H](NC(=O)/C(=N\\O[C@@H](COc2ccc3c(c2)CN(C(=N)N[C@@H]2CCCNC2)C3)C(=O)O)c2csc(N)n2)C(=O)N1OS(=O)(=O)O", "MIC", 2]
]}

a: CC1(C)[C@H](NC(=O)/C(=N\O[C@@H](COc2ccc3c(c2)CN(C(=N)NCCCCN)C3)C(=O)O)c2csc(N)n2)C(=O)N1OS(=O)(=O)O
b: CC1(C)[C@H](NC(=O)/C(=N\O[C@@H](COc2ccc3c(c2)CN(C(=N)N(CCN)CCN)C3)C(=O)O)c2csc(N)n2)C(=O)N1OS(=O)(=O)O
Input: Compare reported MIC values for a and b . Which is lower? API: response body contains the label of the selected item.
Output: a

----------
Test system: Acinetobacter baumannii C402
MEASUREMENT NOTES: MIC on clinically isolated bacteria
Type: cell-based
PROTOCOL CONDITIONS: Acinetobacter baumannii C402; read-out: Minimum Inhibitory Concentration (MIC)
PROPERTY LABEL: MIC (µg/mL)

{"columns": ["COMPOUND", "STUDY TARGET", "MIC (µg/mL)"],
 "data": [
  ["CC1(C)[C@H](NC(=O)/C(=N\\O[C@@H](COc2ccc3c(c2)CN(C(=N)NCCCCN)C3)C(=O)O)c2csc(N)n2)C(=O)N1OS(=O)(=O)O [Compound 36]", "Acinetobacter baumannii C402", 2],
  ["CC1(C)[C@H](NC(=O)/C(=N\\O[C@@H](COc2ccc3c(c2)CN(C(=N)N(CCN)CCN)C3)C(=O)O)c2csc(N)n2)C(=O)N1OS(=O)(=O)O [Compound 45]", "Acinetobacter baumannii C402", 8]
]}

a: CC1(C)[C@H](NC(=O)/C(=N\O[C@@H](COc2ccc3c(c2)CN(C(=N)NOCCN)C3)C(=O)O)c2csc(N)n2)C(=O)N1OS(=O)(=O)O [Compound 43]
b: CC1(C)[C@H](NC(=O)/C(=N\O[C@@H](COc2ccc3c(c2)CN(C(=N)N[C@@H]2CCCNC2)C3)C(=O)O)c2csc(N)n2)C(=O)N1OS(=O)(=O)O [Compound 41]
c: CC1(C)[C@H](NC(=O)/C(=N\O[C@@H](COc2ccc3c(c2)CN(/C(=N\[C@@H]2CCCNC2)N[C@@H]2CCCNC2)C3)C(=O)O)c2csc(N)n2)C(=O)N1OS(=O)(=O)O [Compound 46]
Input: Sort by MIC, descending. Form field (ranking): labels in requested order.
Output: a, c, b
